Target: α-glucosidase from Saccharomyces cerevisiae (Saccharomyces cerevisiae)
Construct: purchased Sigma-Aldrich Co. LLC (St. Louis, MO)
Sequence (P53341 whole entry): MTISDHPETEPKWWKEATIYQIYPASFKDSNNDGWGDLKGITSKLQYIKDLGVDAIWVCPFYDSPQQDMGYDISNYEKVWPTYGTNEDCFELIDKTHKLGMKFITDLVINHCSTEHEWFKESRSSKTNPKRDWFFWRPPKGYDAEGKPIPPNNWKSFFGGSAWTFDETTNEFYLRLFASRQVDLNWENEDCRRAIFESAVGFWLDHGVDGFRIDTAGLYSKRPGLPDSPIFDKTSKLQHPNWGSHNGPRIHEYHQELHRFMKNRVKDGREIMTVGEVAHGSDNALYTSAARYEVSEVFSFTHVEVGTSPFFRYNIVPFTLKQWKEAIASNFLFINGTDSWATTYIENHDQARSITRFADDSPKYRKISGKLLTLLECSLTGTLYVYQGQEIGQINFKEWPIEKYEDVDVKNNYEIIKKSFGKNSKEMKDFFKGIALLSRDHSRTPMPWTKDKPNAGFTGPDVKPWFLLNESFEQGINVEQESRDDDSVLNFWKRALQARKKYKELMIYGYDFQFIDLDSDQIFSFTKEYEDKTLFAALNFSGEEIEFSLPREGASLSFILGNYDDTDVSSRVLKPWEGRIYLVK
Assay: biochemical
Description: Compounds A1, A2, A3, A4, A5, A6, B1, B2, B3, B4, C1, C2, C3, C4, C5, C6, C8, C9, D1 (chrysin), D2 (galangin) and D5 were obtained from Indofine Chemical Company, Inc. (Hillsborough, NJ). […] The α-glucosidase activity was measured using a method of Tadera et al.[31] slightly modified. […] The enzymatic reaction was monitored spectrophotometrically, in a microplate reader (Synergy HT, BIO-TEK), by measuring the absorbance at 405 nm. The obtained values correspond to the slope measured between 5 and 20 min. […]
observable: pIC50
# pIC50: negative log10 of molar concentration; output just the value

Given O=c1cc(-c2cccc(O)c2)oc2cc(O)cc(O)c12 , state its recorded pIC50.
4.05

Request the reported pIC50 associated with O=c1c(Cl)c(-c2ccc(O)c(O)c2)oc2cc(O)cc(O)c12
4.68

Suppose we examine the compound O=c1cc(-c2ccc(O)c(O)c2)oc2c(Cl)c(O)c(Cl)c(O)c12 ; what pIC50 value has been reported?
4.47

If you can, please state the reported pIC50 value of O=c1c(O)c(-c2ccc(O)cc2O)oc2cc(O)cc(O)c12 .
4.49

// query pIC50 value for entry O=c1cc(-c2ccc(O)c(O)c2)oc2cccc(O)c12
4.18
